# Tested on: MS2 coat protein
# Test details: apparent KD of MS2 coat protein; higher = weaker reporter binding
# Measurement parameters: Eterna round: R107; input ligand: arginine 13.2 mM
# apparent KD of MS2 coat protein annotations
Answer format: numeric, µM implied, no suffix.

Before answering, review these 2 worked examples.
GUUAGUUACACGGCCGCCACUCUUUGGCUUGGCUCAAGCUCCCAACAUGAGGAUCACCCAUGUCAGAGGACCGGGUGAACAACGU [theeternabot_sameState_MS2_Trp_B_28]    0.0561
AUCAUAAUAGCCUCGUGUAAUUAAAUGGAACGAGGACCGGUACGGCCGCCACUCGAUAUAAACAUGAGGAUCACCCAUGUAAGCA [JR_ExcTryptoA_Sub004]    0.0305

For the sequence shown here, AGUAUUGGAAACAGUACUAGUGAUCCGGUCCGAGGACCGGUACGGCCGCCACUCGAUUUAAAUAAACAUGAGGAUCACCCAUGUA [Ex Tryptophan A 14] , give the reported apparent KD of MS2 coat protein.
0.0158
